Ref: PubChem BioAssay AID624304

test_summary: gst-4 reporter inhibition in live C. elegans – whole organism, uHTS, GFP/RFP fluorescence ratio, strain VP596, SKN-1 inhibitor project, primary screen (AID 624304)
condition_details: C. elegans VP596 Pgst-4::GFP/RFP ratio, acrylamide-induced, 24 h; at 21.8 µM; active compounds read high
Among all 360,000 compounds or so, about 1,800 (0.5%) were called active. The sample as a whole holds a higher share of actives than the screen did.
In this section we review reported inhibition values for a set of compounds.
Output spec: scalar in %, unitless text.

# compound, reported_value
data = [
    ("Cc1ccc(-c2noc(-c3ccccc3C(=O)NCC3CCCO3)n2)cc1 (stereo not drawn)", -3.76),
    ("CCN(CC)P(=O)(/C(Cl)=C\\Nc1c(C)n(C)n(-c2ccccc2)c1=O)N(CC)CC", 38.6),
    ("O=C(O)CCCN1C(=O)C2C3c4ccccc4C(c4ccccc43)[C@@H]2C1=O (stereo partly drawn)", -5.65),
    ("Cc1c(NC(=S)Nc2ccccc2)c(=O)n(-c2ccccc2)n1C", 13.7),
    ("CCOC(=O)C1CCN(C(=O)C2CCN(S(=O)(=O)CC)CC2)CC1", 6.26),
    ("O=C1/C(=C/c2cccs2)CCc2ccccc21", 41.9),
    ("CCC(C)NC(=O)c1cc(Cl)ccc1OC (stereo not drawn)", 3.09),
    ("Clc1ccc(Nc2ccc3ccccc3n2)cc1", 47.2),
]

Please look at this compound and report its inhibition: COc1cc(N2CCCC2)c(OC)cc1/C=C(/C#N)c1cccc(Br)c1 45.8

Please look at this compound and report its inhibition: CC1=NNC(=O)C1Cc1c(Cl)cccc1Cl (stereo not drawn) -3.65

Please look at this compound and report its inhibition: CCCCCCCCCCCCN1C(=O)CSC1c1cccnc1 (stereo not drawn) -6.65

Please look at this compound and report its inhibition: Cc1cc(C)cc(N(CC(=O)Nc2c(C)n(C)n(-c3ccccc3)c2=O)S(C)(=O)=O)c1 -7.93

* * *

In this section we review reported inhibition values for a set of molecules.
test_summary: gst-4 reporter inhibition in live C. elegans – whole organism, uHTS, GFP/RFP fluorescence ratio, strain VP596, SKN-1 inhibitor project, primary screen (AID 624304)
condition_details: C. elegans VP596 Pgst-4::GFP/RFP ratio, acrylamide-induced, 24 h; at 21.8 µM; active compounds read high
Hit rate of the full screen: of about 360,000 compounds, about 1,800 (0.5%) were called active. Many of the other results were omitted from the sample, so actives are more common in it than they were.

# molecule, reported_metric, reported_value
rows = [
    ("N#Cc1ccc(OCC(=O)Nc2nc(-c3ccccn3)cs2)cc1", "inhibition", "0.752% (inactive)"),
    ("COCCn1c(SCc2nc3cc(OC)c(OC)cc3c(=O)[nH]2)nnc1-c1ccncc1", "inhibition", "13.8% (inactive)"),
    ("Cn1c(CC(=O)Nc2ccc(F)cc2)nnc1SCC(=O)NC1CCCCC1", "inhibition", "7.79% (inactive)"),
    ("Clc1ccc(Nc2nc(-c3cccs3)cs2)nc1", "inhibition", "84.2% (active)"),
    ("O=C(Nc1ccc(Cl)cn1)c1ccccc1-c1ccccc1", "inhibition", "19.1% (inactive)"),
]

Please look at this molecule and report its inhibition: CCCCOC(=O)Nc1sc2nc(C)cc(C)c2c1-n1cccc1 -12.8% (inactive)

Please look at this molecule and report its inhibition: COc1ccc(C(O)c2nc(-c3ccc(OC)nc3)cs2)cc1 (stereo not drawn) -3.44% (inactive)

Please look at this molecule and report its inhibition: CC(NC(=O)c1ccco1)C(=O)Nc1nc(-c2ccccn2)cs1 (stereo not drawn) -5.6% (inactive)

* * *

test_summary: gst-4 reporter inhibition in live C. elegans – whole organism, uHTS, GFP/RFP fluorescence ratio, strain VP596, SKN-1 inhibitor project, primary screen (AID 624304)
condition_details: C. elegans VP596 Pgst-4::GFP/RFP ratio, acrylamide-induced, 24 h; at 21.8 µM; active compounds read high
Out of some 360,000 compounds screened, about 1,800 (0.5%) were called active. Shown is part of a subset that was picked to be rich in actives.
In this section we review reported inhibition values for a set of compounds.
Output spec: scalar in %, unitless text.

Worked cases, inhibition given:
# compound, readout_unit, reported_value
measured = [
    ("CCOC(=O)C1CCCN(C(=O)COc2ccc(N(C)S(=O)(=O)c3ccc(C)cc3)cc2)C1 (configuration not stated)", "%", -2.11),
    ("COc1cccc(CNC(=O)C2CCCN(c3ncnc4c3nc3n4CCCCC3)C2)c1 (configuration not stated)", "%", 15.4),
    ("C/C(=N\\NC(=O)OC(C)(C)C)c1ccc[nH]1", "%", 10.7),
    ("O=C(Nc1ccc2c(c1)CCC2)c1ccc(Br)s1", "%", 9.29),
    ("C=CCSc1nsc(NC(=O)Nc2cccc(C(C)=O)c2)n1", "%", 2.8),
    ("COc1ccc(S(=O)(=O)NCc2cccnc2)cc1NC(=O)c1ccc(C)cc1", "%", 22.1),
    ("COc1ccc(-c2c(C(C)=O)c(C)nc3sc4c(=O)n(-c5ccc(C)cc5)nnc4c23)cc1", "%", 12.1),
    ("S=c1[nH]ccn1-c1ccc(Cl)cc1", "%", 1.55),
]

Please look at this compound and report its inhibition: O=C(NC(c1ccc(Cl)cc1)c1cnccn1)C1CCN(Cc2ccc(Cl)cc2)CC1 (configuration not stated) -1.18

Please look at this compound and report its inhibition: CCn1c(SCc2cc(=O)n3ccsc3n2)nc2ccccc21 13.5

Please look at this compound and report its inhibition: Oc1cccc2cc(-c3ccncc3)cnc12 -1.84

Please look at this compound and report its inhibition: Cc1c(C2=CCN(S(=O)(=O)c3ccc(Cl)cc3)CC2)c2ccccc2n1C 40.5

Please look at this compound and report its inhibition: CC1CCN(c2ccc([N+](=O)[O-])c(SCCO)c2)CC1 13.8

Please look at this compound and report its inhibition: Cc1ccc(NC(=O)CSc2nn3c(=O)c(C)nnc3s2)cc1Cl 20.9

Please look at this compound and report its inhibition: O=S(=O)(NC1CC2CCC1C2)c1ccc(Cl)cc1 (configuration not stated) 8.97

Please look at this compound and report its inhibition: COc1ccc(C2C3=C(OC(C)=O)c4ccccc4C3=Nc3c2c(=O)n(C)c(=O)n3C)cc1 (configuration not stated) 2.4

Please look at this compound and report its inhibition: N#CC1(Nc2ccc(-c3ccc(Cl)cc3)cc2)CCCC1 69

* * *

test_summary: gst-4 reporter inhibition in live C. elegans – whole organism, uHTS, GFP/RFP fluorescence ratio, strain VP596, SKN-1 inhibitor project, primary screen (AID 624304)
condition_details: C. elegans VP596 Pgst-4::GFP/RFP ratio, acrylamide-induced, 24 h; at 21.8 µM; active compounds read high
The campaign covered roughly 360,000 compounds. About 1,800 (0.5%) were called active. Many of the other results were omitted from the sample, so actives are more common in it than they were.
reported_metric: inhibition

Worked cases, inhibition given:
# compound, inhibition
measured = [
    ("O=C(NC1CCCC1)C1CC(=O)N(c2ccc(F)cc2)C1 (stereo not given)", "0.701% (inactive)"),
    ("CCCCNC(=O)CSc1nc2ccc(NC(=O)CSc3nnc(COc4ccccc4C)n3C)cc2s1", "39.2% (active)"),
    ("Cc1cccc(N2CCN(C(=O)c3cccc(S(=O)(=O)N4CCc5ccccc5C4)c3)CC2C)c1 (stereo not given)", "-16.8% (inactive)"),
    ("CC(=O)Nc1cccc(OCC(=O)/C=C2\\N(C)c3ccccc3C2(C)C)c1", "45.5% (active)"),
    ("NC(=O)C1CCN(C(=O)c2ccc(C(F)(F)F)cc2)CC1", "1.88% (inactive)"),
]

Please look at this compound and report its inhibition: CC(=O)Nc1ccc(NC(=O)CSc2nnc(COc3ccccc3C)n2CC2CCCO2)cc1 (stereo not given) -7.59% (inactive)

Please look at this compound and report its inhibition: O=C(OCC(=O)N1CCOCC1)c1ccc2ccccc2c1 -11.5% (inactive)

Please look at this compound and report its inhibition: N#CC1=C(N)Oc2c(sc3ccccc23)C1c1ccco1 (stereo not given) 35% (active)

Please look at this compound and report its inhibition: CCCCSc1[nH]c(=O)c(C(=O)OCC)cc1C#N 48.3% (active)

Please look at this compound and report its inhibition: O=C(C1CCCO1)N1CCN(C(=O)C23CC4CC(CC(C4)C2)C3)CC1 (stereo not given) 24.4% (inactive)

* * *

test_summary: gst-4 reporter inhibition in live C. elegans – whole organism, uHTS, GFP/RFP fluorescence ratio, strain VP596, SKN-1 inhibitor project, primary screen (AID 624304)
condition_details: C. elegans VP596 Pgst-4::GFP/RFP ratio, acrylamide-induced, 24 h; at 21.8 µM
Out of some 360,000 compounds screened, about 1,800 (0.5%) were called active.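 Rule for the calls: active = interference check ratio from 0.5 to 1.5 plus GFP to RFP signal ratio inhibition reaching or exceeding a fixed threshold (cut at about 30% in these data, passing the limit was not always enough); inactive = the rest.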 The entries come from a sample that favours actives as a whole.
Returns: one label drawn from active, inactive

# input_smiles, assigned_category
rows = [
    ("O=C(CCS(=O)(=O)c1cccc2nsnc12)N1CCN(c2ccccc2F)CC1", "active"),
    ("Cn1nnnc1SCC(=O)Nc1cccc(S(=O)(=O)N2CCCCC2)c1", "inactive"),
]

Here's the next entry for you.
What did the test return for COCCn1cnnc1SCC(=O)Nc1cccc(S(=O)(=O)N2CCCCC2)c1 ? active
